- Tested on: EKVX
- assayProcedure: NCI tumour cell line growth inhibition, 48 h
The source made the active and inactive calls. Cut-off read from the data, not from the text of the source: active = GI50 up to about 1.1 µM and inactive = higher.
Select the matching outcome among active, inactive

- chemicalStructure: "COc1ccc(-c2onc(-c3ccc([N+](=O)[O-])cc3)c2C2=NCCCN2)cc1"
  classAssignment: "inactive"
- chemicalStructure: "CCOC(=O)/C(=C\\NC[C@@H](C)O)c1nc2ccccc2[nH]1"
  classAssignment: "inactive"
- chemicalStructure: "O=C1NNC(=O)c2ccccc2SSc2ccccc2C(=O)NNC(=O)c2ccccc2SSc2ccccc21"
  classAssignment: "inactive"
- chemicalStructure: "O=c1c2ccc(S(=O)(=O)c3ccc4c(=O)n5c6ccccc6nc5c5cccc3c45)c3cccc(c32)c2nc3ccccc3n12"
  classAssignment: "inactive"
- chemicalStructure: "O=C(NNS(=O)(=O)c1ccc(Br)cc1)c1ccc(Cl)cc1NC(=O)C12CC3CC(CC(C3)C1)C2"
  classAssignment: "inactive"
- chemicalStructure: "Nc1nc2c(ncn2Cc2ccccc2CO)c(=O)[nH]1"
  classAssignment: "inactive"
- chemicalStructure: "O=C1C(=O)C(CCCO)(CCCO)CCCCCCCCC1(CCCO)CCCO"
  classAssignment: "inactive"
- chemicalStructure: "Oc1cc(-c2cccc(OC(F)(F)F)c2)nc2cc3c(cc12)OCO3"
  classAssignment: "active"

Please examine the following record next.
For C[C@H]1C(=O)C2=C[C@H]1CCC(=O)[C@]1(C)CCCC(C)(C)[C@H]1C[C@H]2O , which call appears in the assay record?
inactive

---

- Tested on: LOX IMVI
- assayProcedure: NCI tumour cell line growth inhibition, 48 h
Activity calls are given as the source filed them. Cut-off read from the data, not from the text of the source: active = GI50 up to about 1.1 µM and inactive = higher.
Select the matching outcome among active, inactive

- compound: "NS(=O)(=O)c1ccc(NC(=O)Nc2cccc3ccccc23)cc1"
  classAssignment: "inactive"

For COC1C(O)C(O[C@H]2CC[C@@]3(C)C(CC[C@@H]4[C@@H]3CC[C@]3(C)[C@@H](C(C)OC5OC(CO)C(O)C(O)C5O)CC[C@]43O)C2)OC(C)C1OC1OC(CO)C(O)C(O)C1O (stereo partly drawn) , which call appears in the assay record?
inactive

For COc1cc2oc3cc(=O)cc4oc(-c5ccccc5)cc(c2c2c1CCC(c1ccccc1)O2)c43 (stereo not drawn) , which call appears in the assay record?
inactive

For CN(C)c1ccc(/C=N/N=C2\C(=O)Nc3c(Cl)cc(Cl)cc32)cc1 , which call appears in the assay record?
inactive

For CCN(CC)CC1CCCCN1CC(=O)N1c2ccccc2C(=O)Nc2cccnc21 (stereo not drawn) [OTENZEPAD] , which call appears in the assay record?
inactive

For CC(C)(C)OC(=O)NC(Cc1ccccc1)C(=S)N1CCCC1 (stereo not drawn) , which call appears in the assay record?
inactive

For CNCCN[C@@H]1c2cc3c(cc2[C@@H](c2cc(OC)c(O)c(OC)c2)[C@H]2C(=O)OC[C@@H]21)OCO3 , which call appears in the assay record?
active

For O=C(/C=C/c1cccc(Oc2ccccc2)c1)NCc1ccc(C(=O)NCCc2ccccc2)cc1 , which call appears in the assay record?
inactive

---

- Tested on: SF-539
- assayProcedure: NCI tumour cell line growth inhibition, 48 h
Calls of active or inactive are those of the source. Rule as the data show it: active = GI50 up to about 1.1 µM and inactive = higher.
Select the matching outcome among yes (1) = active, no (0) = inactive

Consider the worked cases shown below.
- molecule: "N=C(N)N/N=C/c1nc2n(c1[N+](=O)[O-])CCS2"
  targetOrSystem: "SF-539"
  classAssignment: "no (0)"
- molecule: "Cc1ccc([N+](=O)[O-])cc1NC(=O)C(=O)Cc1occc(=O)c1O"
  targetOrSystem: "SF-539"
  classAssignment: "no (0)"
- molecule: "CCCCCCCCCC[C@@H](O)[C@H]1CC[C@H]([C@H]2CC[C@H]([C@H](O)CCCCCCCCCC[C@@H]3CC(CC(C)=O)C(=O)O3)O2)O1 (stereo partly drawn)"
  targetOrSystem: "SF-539"
  classAssignment: "no (0)"
- molecule: "Cc1c(C)n(-c2ccccc2)c2nc([S+](C)[O-])nc([S+](C)[O-])c12 (stereo not drawn)"
  targetOrSystem: "SF-539"
  classAssignment: "no (0)"
- molecule: "C[C@@H](C[C@@H](O)[C@H](O)C(C)(C)O)[C@H]1CC=C2[C@]3(C)[C@H](O)C[C@H]4C(C)(C)[C@H](O)CC[C@]4(C)[C@H]3CC[C@@]21C"
  targetOrSystem: "SF-539"
  classAssignment: "no (0)"
- molecule: "O=C(O)/C(Cl)=C(\\Cl)C(=O)c1ccccc1"
  targetOrSystem: "SF-539"
  classAssignment: "no (0)"
- molecule: "CCCNC(=S)N/N=C1\\C(=O)Nc2ccccc21"
  targetOrSystem: "SF-539"
  classAssignment: "no (0)"
- molecule: "O=c1ccn(Cc2ccccc2CCl)c(=O)[nH]1"
  targetOrSystem: "SF-539"
  classAssignment: "no (0)"

For CCOP(=O)(OCC)C(Nc1ccc(Br)cc1)c1cccc([N+](=O)[O-])c1 (stereo not drawn) , which call appears in the assay record?
no (0)

For O=C1C(=O)C(CCCO)(CCCO)CCCCCCCCC1(CCCO)CCCO , which call appears in the assay record?
no (0)

For C=C1C(=O)O[C@@H]2CC(CO)=C([C@@H](C)CCCO)[C@@H](OC(=O)/C(C)=C\C)[C@H]12 , which call appears in the assay record?
no (0)

For C=C1C(=O)O[C@H]2C3C(=C(C)CC[C@@H]12)C(=O)[C@@H]1OC31C (stereo partly drawn) , which call appears in the assay record?
no (0)

For COC1C(O)C(O[C@H]2CC[C@@]3(C)C(CC[C@@H]4[C@@H]3CC[C@]3(C)[C@@H](C(C)OC5OC(CO)C(O)C(O)C5O)CC[C@]43O)C2)OC(C)C1OC1OC(CO)C(O)C(O)C1O (stereo partly drawn) , which call appears in the assay record?
no (0)

For CCCNC1=C2CC(C)CC(OC)[C@@H](O)[C@H](C)/C=C(\C)C(OC(N)=O)C(OC)/C=C\C=C(/C)C(=O)NC(=CC1=O)C2=O (stereo partly drawn) , which call appears in the assay record?
yes (1)

For CCOC(=O)c1cnc2c(ccc3ncccc32)c1OCC , which call appears in the assay record?
no (0)

For c1ccc(/N=C2\c3ccsc3/C(=N/c3ccccc3)c3ccsc32)cc1 , which call appears in the assay record?
no (0)

For Nc1ccn(C2OC(CO)C(O)C2O)c(=O)n1 (stereo not drawn) , which call appears in the assay record?
no (0)

For C=C[C@@]1(O)CCCC2=C(C(=O)OCC)CC[C@]21C , which call appears in the assay record?
no (0)
